# System: 945468-187-T-J2-PDC spheroids viability;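 note: spheroids exposed to compounds for seven days before reading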
# MEASUREMENT_DESCRIPTION: Anticancer human tumor 945468-187-T-J2-PDC patient-derived rectal carcinoma cell line growth inhibition [PI3K]
# ASSAY_CONDITIONS: curve of first compound; second compound 0.316 µM; spheroids with HUVEC and MSC
MEASURE_NAME: IC50

MOLECULE: CC(Cn1ccc(-c2ccc(C#N)c(Cl)c2)n1)NC(=O)c1cc(C(C)O)[nH]n1 (stereo unspecified) + Cc1nc(NC(=O)N2CCCC2C(N)=O)sc1-c1ccnc(C(C)(C)C(F)(F)F)c1
RECORDED_VALUE: > 10 µM

MOLECULE: CNC(=O)c1ccc(N2C(=S)N(c3ccc(C#N)c(C(F)(F)F)c3)C(=O)C2(C)C)cc1F + CC(Nc1ncnc2nc[nH]c12)c1cc2cccc(Cl)c2c(=O)n1-c1ccccc1
RECORDED_VALUE: > 10 µM

MOLECULE: Cn1ncc(Cl)c1-c1cc(C(=O)NC(CN)Cc2cccc(F)c2)sc1Cl (stereo unspecified) + CC(Nc1ncnc2nc[nH]c12)c1cc2cccc(Cl)c2c(=O)n1-c1ccccc1
RECORDED_VALUE: > 10 µM

MOLECULE: CCCS(=O)(=O)Nc1ccc(F)c(C(=O)c2c[nH]c3ncc(-c4ccc(Cl)cc4)cc23)c1F + CC(Nc1ncnc2nc[nH]c12)c1cc2cccc(Cl)c2c(=O)n1-c1ccccc1
RECORDED_VALUE: 5.4 µM

Please tell me: IC50 of C[C@@H](NC(=O)c1ncnc(N)c1Cl)c1ncc(C(=O)Nc2cc(C(F)(F)F)c(Cl)cn2)s1 + COc1c(OCCCN2CCOCC2)ccc2c3n(c(=NC(=O)c4cnc(N)nc4)nc12)CCN3 , system 945468-187-T-J2-PDC spheroids viability? < 0.0316 µM

Give 945468-187-T-J2-PDC spheroids viability IC50 for CC(Cn1ccc(-c2ccc(C#N)c(Cl)c2)n1)NC(=O)c1cc(C(C)O)[nH]n1 (stereo unspecified) + CC(Nc1ccc2c(c1)OCCn1cc(N3C(=O)OCC3C(F)F)nc1-2)C(N)=O > 10 µM

Reference source for all entries: PubChem BioAssay AID1963972
